Field: binding signal. Provide a value for each of the sequences that follow.
Target: MBP-FoxP3dN (Mus musculus, UniProt Q99JB6 188-423)
Sequence: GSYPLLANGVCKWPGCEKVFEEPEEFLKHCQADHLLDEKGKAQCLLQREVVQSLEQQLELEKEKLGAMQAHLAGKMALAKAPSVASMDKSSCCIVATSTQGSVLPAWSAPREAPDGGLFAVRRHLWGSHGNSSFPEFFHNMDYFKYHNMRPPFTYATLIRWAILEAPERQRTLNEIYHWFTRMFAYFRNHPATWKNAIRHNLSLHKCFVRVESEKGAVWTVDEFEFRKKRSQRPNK
Assay: PD-seq (MBP pull-down with sequencing); 20 mM Tris-HCl pH 7.5, 100 mM NaCl, 1.5 mM MgCl2, 0.4 uM protein, 0.1 uM dsDNA library, 30 min, room temperature, amylose pull-down; high values mean tight binding
Conditions: protein: recombinant; tags: His6-MBP; chain copies: 2; dsDNA, one strand shown
In all, about 16,000 sequences were measured (“rpm ratio (pull-down/input)”: median about 0.5, highest 2% from about 5.5 on). Only a selection was taken, and the highest values are over-represented in it overall.

[Q] # get_value(readout='binding signal', item= GATGATTGTTCTCCCAGCTGATGAATTCCTCCGTTCGAGTAAACAAATTTTCCTAATCTTTCTGTTCAAGCGCCATCTAC )
[A] 0.255 RPM ratio (pull-down/input)

[Q] Record: GATGATTGTTCTCCCAGCTGATGAATTTGCCATTTCGAGTAAACAAATTTTCCTAATCTTTCTGTTCAAGCGCCATCTAC
[A] 2.91 RPM ratio (pull-down/input)

[Q] // repeat for GATGATTGTTCTCCCAGCTGATGAATTACAACCGTCGAGTAAACAAATTTTCCTAATCTTTCTGTTCAAGCGCCATCTAC and report
[A] 0.497 RPM ratio (pull-down/input)

[Q] Entry to check: GATGATTGTTCTCCCAGCTGATGAATTCAATTGCTCGAGTAAACAAATTTTCCTAATCTTTCTGTTCAAGCGCCATCTAC
[A] 2.31 RPM ratio (pull-down/input)

[Q] Cool, now GATGATTGTTCTCCCAGCTGATGAATTTTGGCTCTCGAGTAAACAAATTTTCCTAATCTTTCTGTTCAAGCGCCATCTAC
[A] 0.475 RPM ratio (pull-down/input)

[Q] Next entry: GATGATTGTTCTCCCAGCTGATGAATTGTAAACATCGAGTAAACAAATTTTCCTAATCTTTCTGTTCAAGCGCCATCTAC
[A] 5.2 RPM ratio (pull-down/input)

[Q] Next sequence: GATGATTGTTCTCCCAGCTGATGAATTGTTGCATTCGAGTAAACAAATTTTCCTAATCTTTCTGTTCAAGCGCCATCTAC
[A] 7.63 RPM ratio (pull-down/input)

[Q] Another: GATGATTGTTCTCCCAGCTGATGAATTTTGCATTTCGAGTAAACAAATTTTCCTAATCTTTCTGTTCAAGCGCCATCTAC
[A] 6.44 RPM ratio (pull-down/input)

[Q] Then what about the sequence GATGATTGTTCTCCCAGCTGATGAATTTCGCTTGTCGAGTAAACAAATTTTCCTAATCTTTCTGTTCAAGCGCCATCTAC ?
[A] 3.29 RPM ratio (pull-down/input)

[Q] Next up: GATGATTGTTCTCCCAGCTGATGAATTTGCCCATTCGAGTAAACAAATTTTCCTAATCTTTCTGTTCAAGCGCCATCTAC
[A] 0.615 RPM ratio (pull-down/input)

[Q] Again, but for GATGATTGTTCTCCCAGCTGATGAATTGTGGTTTTCGAGTAAACAAATTTTCCTAATCTTTCTGTTCAAGCGCCATCTAC
[A] 2.03 RPM ratio (pull-down/input)

[Q] Another: GATGATTGTTCTCCCAGCTGATGAATTGCGGTCATCGAGTAAACAAATTTTCCTAATCTTTCTGTTCAAGCGCCATCTAC
[A] 1.01 RPM ratio (pull-down/input)

[Q] Follow-up entry: GATGATTGTTCTCCCAGCTGATGAATTGCCCGAATCGAGTAAACAAATTTTCCTAATCTTTCTGTTCAAGCGCCATCTAC
[A] 0.311 RPM ratio (pull-down/input)

[Q] Please do the same for GATGATTGTTCTCCCAGCTGATGAATTCGTTGCATCGAGTAAACAAATTTTCCTAATCTTTCTGTTCAAGCGCCATCTAC as well.
[A] 2.22 RPM ratio (pull-down/input)

[Q] // repeat for GATGATTGTTCTCCCAGCTGATGAATTTAACGAGTCGAGTAAACAAATTTTCCTAATCTTTCTGTTCAAGCGCCATCTAC and report
[A] 0.208 RPM ratio (pull-down/input)
